assay: pharmacokinetics of 16 ginsenosides in rat plasma after oral administration of RGS; type: in vivo; details: SD, rat, plasma, po, 100 mg/kg, normal rats, oral RGS single dose 100 mg/kg, plasma, mean ± S.D., n = 5; read-out: T Max
reportedEndpoint: Tmax (h)
Reply with just the number (in h).

molecule	Tmax, h
CC(C)=CCC=C(C)C1CCC2(C)C1C(O)CC1C3(C)CCC(OC4OC(CO)C(O)C(O)C4OC4OC(CO)C(O)C(O)C4O)C(C)(C)C3CCC12C (centres unmarked)	4
CC(C)=CCCC(C)(OC1OC(CO)C(O)C(O)C1O)C1CCC2(C)C1C(O)CC1C3(C)CCC(O)C(C)(C)C3C(OC3OC(CO)C(O)C(O)C3OC3OC(C)C(O)C(O)C3O)CC12C (centres unmarked)	0.5
C=C(CCC=C(C)C)C1CCC2(C)C1C(O)CC1C3(C)CCC(OC4OC(CO)C(O)C(O)C4OC4OC(CO)C(O)C(O)C4O)C(C)(C)C3CCC12C (centres unmarked)	6
CC(C)=CCCC(C)(OC1OC(CO)C(O)C(O)C1O)C1CCC2(C)C1C(O)CC1C3(C)CCC(OC4OC(CO)C(O)C(O)C4OC4OC(CO)C(O)C(O)C4O)C(C)(C)C3CCC12C (centres unmarked)	1.5

// below: Tmax requested for another molecule
Prompt: Given CC(C)=CCCC(C)(OC1OC(COC2OC(CO)C(O)C(O)C2O)C(O)C(O)C1O)C1CCC2(C)C1C(O)CC1C3(C)CCC(OC4OC(CO)C(O)C(O)C4OC4OC(CO)C(O)C(O)C4O)C(C)(C)C3CCC12C (centres unmarked) , state its recorded Tmax.
Response: 4.6

###

assay: pharmacokinetics of 16 ginsenosides in rat plasma after oral administration of RGS; type: in vivo; conditions: SD, rat, in vivo, po, 100 mg/kg, MRT
reportedEndpoint: MRT (h)
The reply should be a number in h, with the unit left off.

Prompt: Entry under review: C=C(CCC=C(C)C)C1CCC2(C)C1C(O)CC1C3(C)CCC(O)C(C)(C)C3C(OC3OC(CO)C(O)C(O)C3O)CC12C (stereo not drawn) . Reported MRT?
Response: 9.6

###

half-life reference
experiment: pharmacokinetics of 16 ginsenosides in rat plasma after oral administration of RGS; assay type: in vivo; details: SD, rat, plasma, po, 100 mg/kg, model (scopolamine 1 mg/kg i.p.-treated) rats, oral RGS single dose 100 mg/kg, plasma, mean ± S.D., n = 5; read-out: T1/2 (converted)
Write it as a number; the unit h goes unstated.

Worked examples follow.
molecule	half-life (h)
CC(C)=CCCC(C)(OC1OC(COC2OC(CO)C(O)C(O)C2O)C(O)C(O)C1O)C1CCC2(C)C1C(O)CC1C3(C)CCC(OC4OC(CO)C(O)C(O)C4OC4OC(CO)C(O)C(O)C4O)C(C)(C)C3CCC12C (centres unmarked)	4.8
CC(C)=CCCC(C)(OC1OC(COC2OCC(O)C(O)C2O)C(O)C(O)C1O)C1CCC2(C)C1C(O)CC1C3(C)CCC(OC4OC(CO)C(O)C(O)C4OC4OC(CO)C(O)C(O)C4O)C(C)(C)C3CCC12C (centres unmarked)	6.9
CC(C)=CCCC(C)(OC1OC(COC2OC(CO)C(O)C2O)C(O)C(O)C1O)C1CCC2(C)C1C(O)CC1C3(C)CCC(OC4OC(CO)C(O)C(O)C4OC4OC(CO)C(O)C(O)C4O)C(C)(C)C3CCC12C (centres unmarked)	7.9

Prompt: half-life lookup needed for CC(C)=CCC=C(C)C1CCC2(C)C1C(O)CC1C3(C)CCC(OC4OC(CO)C(O)C(O)C4OC4OC(CO)C(O)C(O)C4O)C(C)(C)C3CCC12C (centres unmarked) , thanks.
Response: 27.3

Prompt: Record: CC(C)=CCCC(C)(OC1OC(CO)C(O)C(O)C1O)C1CCC2(C)C1C(O)CC1C3(C)CCC(O)C(C)(C)C3C(OC3OC(CO)C(O)C(O)C3OC3OC(C)C(O)C(O)C3O)CC12C (centres unmarked)
Response: 11.3
